assay: Pharmacokinetics after IV dose in mice; details: mouse, in vivo; 1 mg/kg IV, male C57BL/6 mice
Hi there, I'd appreciate the recorded C0 for every entry that follows.

>>> result("CCCCCCC(C)(C)c1cc(O)c2c(c1)OC(C)(C)[C@@H]1CC=C(C(=O)NC[C@H](O)CO)C[C@@H]21")
"2790 ng/mL"
>>> result("CCCCCCC(C)(C)c1cc(O)c2c(c1)OC(C)(C)[C@@H]1CC=C(C(=O)OC(C)C)C[C@@H]21")
"17500 ng/mL"
>>> result("CCCCCCC(C)(C)c1cc(O)c2c(c1)OC(C)(C)[C@@H]1CC=C(C(=O)O)C[C@@H]21 [AJA, reference compound]")
"1750 ng/mL"
>>> result("CCCCCCC(C)(C)c1cc(O)c2c(c1)OC(C)(C)[C@@H]1CC=C(C(=O)NC(C)(C)CCO)C[C@@H]21")
"1840 ng/mL"

# input for lookup
# compound "CCCCCCC(C)(C)c1cc(O)c2c(c1)OC(C)(C)[C@@H]1CC=C(C(=O)NC[C@@H](O)CO)C[C@@H]21" ; its C0 = 3060 ng/mL
